target: T1, FcγRIIIA having a Phe residue at polymorphic site 158 (human, UniProt P08637 17-208, limits assumed); assay: SPR, Fc captured on Protein A, receptor injected; steady-state analysis
T1 construct: also called FcγRIIIA-158F; CD16a; not shown: His-tag fused to the C-terminus
T1 sequence (P08637 17-208 limits assumed): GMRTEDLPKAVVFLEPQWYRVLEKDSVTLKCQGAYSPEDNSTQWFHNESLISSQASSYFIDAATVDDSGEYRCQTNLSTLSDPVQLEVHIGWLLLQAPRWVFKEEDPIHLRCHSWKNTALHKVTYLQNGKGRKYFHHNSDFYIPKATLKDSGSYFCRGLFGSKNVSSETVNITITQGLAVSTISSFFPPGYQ
pKd: −log10 of the molar value.
endpointName: pKd

binder	endpointName	measuredNumber
Fc-226^hg/290^hg/E333A/K334A (other, N-linked glycans at Asn297 and at engineered Asn226 and Asn290 (IgG1 heavy chain positions)) EPKSCDKTHTNSTCPAPELLGGPSVFLFPPKPKDTLMISRTPEVTCVVVDVSHEDPEVKFNWYVDGVEVHNAKTNSTEEQYNSTYRVVSVLTVLHQDWLNGKEYKCKVSNKALPAPIAATISKAKGQPREPQVYTLPPSREEMTKNQVSLTCLVKGFYPSDIAVEWESNGQPENNYKTTPPVLDSDGSFFLYSKLTVDKSRWQQGNVFSCSVMHEALHNHYTQKSLSLSPGK	pKd	6.82
IgG1 Fc variant Fc-290^hg (other, N-linked glycans at Asn297 and at engineered Asn290 (IgG1 heavy chain positions), KPR at 290-292 replaced by NST) EPKSCDKTHTCPPCPAPELLGGPSVFLFPPKPKDTLMISRTPEVTCVVVDVSHEDPEVKFNWYVDGVEVHNAKTNSTEEQYNSTYRVVSVLTVLHQDWLNGKEYKCKVSNKALPAPIEKTISKAKGQPREPQVYTLPPSREEMTKNQVSLTCLVKGFYPSDIAVEWESNGQPENNYKTTPPVLDSDGSFFLYSKLTVDKSRWQQGNVFSCSVMHEALHNHYTQKSLSLSPGK	pKd	7.18
IgG1 Fc variant Fc-226^hg/290^hg (other, N-linked glycans at Asn297 and at engineered Asn226 and Asn290 (IgG1 heavy chain positions), Both CPP (226-228) and KPR (290-292) replaced by NST) EPKSCDKTHTNSTCPAPELLGGPSVFLFPPKPKDTLMISRTPEVTCVVVDVSHEDPEVKFNWYVDGVEVHNAKTNSTEEQYNSTYRVVSVLTVLHQDWLNGKEYKCKVSNKALPAPIEKTISKAKGQPREPQVYTLPPSREEMTKNQVSLTCLVKGFYPSDIAVEWESNGQPENNYKTTPPVLDSDGSFFLYSKLTVDKSRWQQGNVFSCSVMHEALHNHYTQKSLSLSPGK	pKd	6.80
IgG1 Fc variant Fc-226^hg/290^hg/S298A (other, N-linked glycans at Asn297 and at engineered Asn226 and Asn290 (IgG1 heavy chain positions)) EPKSCDKTHTNSTCPAPELLGGPSVFLFPPKPKDTLMISRTPEVTCVVVDVSHEDPEVKFNWYVDGVEVHNAKTNSTEEQYNATYRVVSVLTVLHQDWLNGKEYKCKVSNKALPAPIEKTISKAKGQPREPQVYTLPPSREEMTKNQVSLTCLVKGFYPSDIAVEWESNGQPENNYKTTPPVLDSDGSFFLYSKLTVDKSRWQQGNVFSCSVMHEALHNHYTQKSLSLSPGK	pKd	7.06
IgG1 Fc variant Fc-226^hg/290^hg/S298A/E333A/K334A (other, N-linked glycans at Asn297 and at engineered Asn226 and Asn290 (IgG1 heavy chain positions)) EPKSCDKTHTNSTCPAPELLGGPSVFLFPPKPKDTLMISRTPEVTCVVVDVSHEDPEVKFNWYVDGVEVHNAKTNSTEEQYNATYRVVSVLTVLHQDWLNGKEYKCKVSNKALPAPIAATISKAKGQPREPQVYTLPPSREEMTKNQVSLTCLVKGFYPSDIAVEWESNGQPENNYKTTPPVLDSDGSFFLYSKLTVDKSRWQQGNVFSCSVMHEALHNHYTQKSLSLSPGK	pKd	7.30

The values you see were collected from patent US20160280766A1.
